- assayedSystem: human LILRB2 expressed on cells (human, UniProt Q8N423 22-597)
- Sequence (Q8N423 other isoform, or with tags, fused parts or gaps limits assumed): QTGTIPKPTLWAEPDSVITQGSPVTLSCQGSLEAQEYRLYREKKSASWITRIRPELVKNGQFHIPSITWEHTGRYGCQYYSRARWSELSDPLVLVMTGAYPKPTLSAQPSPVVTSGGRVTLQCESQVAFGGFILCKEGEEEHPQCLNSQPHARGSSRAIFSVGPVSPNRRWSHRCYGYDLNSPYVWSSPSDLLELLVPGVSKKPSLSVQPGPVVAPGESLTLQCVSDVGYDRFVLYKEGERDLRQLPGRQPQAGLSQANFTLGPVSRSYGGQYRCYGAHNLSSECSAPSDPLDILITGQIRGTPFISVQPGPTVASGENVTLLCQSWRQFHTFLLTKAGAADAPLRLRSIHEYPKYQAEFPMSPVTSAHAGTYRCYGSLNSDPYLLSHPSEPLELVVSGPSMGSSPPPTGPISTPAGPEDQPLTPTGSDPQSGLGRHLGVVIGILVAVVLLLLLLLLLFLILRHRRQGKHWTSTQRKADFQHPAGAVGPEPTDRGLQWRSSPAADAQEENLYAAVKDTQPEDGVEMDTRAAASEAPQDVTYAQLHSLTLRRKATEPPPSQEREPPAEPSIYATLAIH
- procedureDetails: cell-based or functional assay
recordedMetric: TNFa production (fold over LPS alone)
Respond with the bare value in fold over LPS alone.

Give the reported TNFa production (fold over LPS alone) for this binder. J-17 (antibody, human IgG4 S228P, kappa, V domains shown, Human IgG4 chimera of murine origin; also called J-17.h) VH: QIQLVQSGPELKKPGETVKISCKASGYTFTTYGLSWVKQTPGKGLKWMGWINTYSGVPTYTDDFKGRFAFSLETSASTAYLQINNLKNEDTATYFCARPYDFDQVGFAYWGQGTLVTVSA VL: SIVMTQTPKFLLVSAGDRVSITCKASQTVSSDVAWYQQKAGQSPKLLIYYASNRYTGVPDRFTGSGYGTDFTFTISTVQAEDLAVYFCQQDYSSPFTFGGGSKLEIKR
8.12

The measured values listed here are drawn from patent US20200339690A1.
